This collection of values is drawn from patent US20180036441A1.

target desc: T1, MUC1 on HCT116/MUC1 cells (UniProt P15941 24-1255, limits assumed)
T1 construct: whole, on cells; also called MUC1 overexpressed cell line
T1 sequence (P15941 24-1255 limits assumed): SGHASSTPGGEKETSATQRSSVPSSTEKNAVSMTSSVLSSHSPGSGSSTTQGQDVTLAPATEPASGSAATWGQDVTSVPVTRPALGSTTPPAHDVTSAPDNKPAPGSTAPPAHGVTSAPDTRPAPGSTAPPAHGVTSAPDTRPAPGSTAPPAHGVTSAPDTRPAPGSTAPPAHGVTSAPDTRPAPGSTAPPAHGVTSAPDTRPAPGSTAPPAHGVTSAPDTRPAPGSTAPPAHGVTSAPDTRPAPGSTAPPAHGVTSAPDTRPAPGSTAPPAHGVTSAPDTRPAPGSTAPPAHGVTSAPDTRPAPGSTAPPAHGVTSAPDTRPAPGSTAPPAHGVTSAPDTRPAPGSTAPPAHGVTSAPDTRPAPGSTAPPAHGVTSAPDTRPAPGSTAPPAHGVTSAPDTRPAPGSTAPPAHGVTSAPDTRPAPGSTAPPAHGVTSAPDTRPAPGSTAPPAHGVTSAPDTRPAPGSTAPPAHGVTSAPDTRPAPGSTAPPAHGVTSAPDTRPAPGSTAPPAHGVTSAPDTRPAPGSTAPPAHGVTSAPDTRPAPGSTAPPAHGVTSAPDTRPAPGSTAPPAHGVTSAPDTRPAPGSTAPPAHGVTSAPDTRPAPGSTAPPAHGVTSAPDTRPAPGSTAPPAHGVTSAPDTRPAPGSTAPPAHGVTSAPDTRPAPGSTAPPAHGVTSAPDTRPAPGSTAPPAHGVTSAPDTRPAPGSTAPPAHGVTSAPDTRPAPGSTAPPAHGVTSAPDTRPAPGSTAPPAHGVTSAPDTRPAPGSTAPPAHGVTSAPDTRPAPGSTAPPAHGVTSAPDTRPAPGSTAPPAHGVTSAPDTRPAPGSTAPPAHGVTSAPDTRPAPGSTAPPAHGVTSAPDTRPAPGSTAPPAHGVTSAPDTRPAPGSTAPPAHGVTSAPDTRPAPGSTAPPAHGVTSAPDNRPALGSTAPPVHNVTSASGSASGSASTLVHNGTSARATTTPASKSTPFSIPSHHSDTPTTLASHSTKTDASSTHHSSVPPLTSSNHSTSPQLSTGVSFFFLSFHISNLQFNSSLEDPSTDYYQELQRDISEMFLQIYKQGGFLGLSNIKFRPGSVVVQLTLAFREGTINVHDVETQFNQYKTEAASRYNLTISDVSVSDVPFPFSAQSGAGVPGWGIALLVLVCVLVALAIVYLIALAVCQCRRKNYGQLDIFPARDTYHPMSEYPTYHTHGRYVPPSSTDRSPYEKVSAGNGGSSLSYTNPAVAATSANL
assay name: FACS titration, HCT116/MUC1 cells, antibody at 0.244 nM
readout type: geometric mean

binder	reported measurement
VH1 + VL4 (antibody, V domains shown, Humanized IgG expressed in HEK293; also called humanized antibody VH1+VL4) VH: QVQLVQSGAEVKKPGSSVKVSCKASGYAFSNFWMNWVRQAPGQGLEWMGQIYPGDGDTNYNGKFKGRVTITADKSTSTAYMELSSLRSEDTAVYYCARSYYRSAWFAYWGQGTLVTVSS VL: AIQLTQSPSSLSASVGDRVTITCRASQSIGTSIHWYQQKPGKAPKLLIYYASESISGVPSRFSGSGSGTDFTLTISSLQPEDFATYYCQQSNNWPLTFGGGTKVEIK	2.82
VH5 + VL1 (antibody, V domains shown, Humanized IgG expressed in HEK293; also called humanized antibody VH5+VL1) VH: EVQLVQSGAEVKKPGESLKISCKGSGYAFSNFWMNWVRQMPGKGLEWMGQIYPGDGDTNYNGKFKGQVTISADKSISTAYLQWSSLKASDTAMYYCARSYYRSAWFAYWGQGTLVTVSL VL: EIVLTQSPDFQSVTPKEKVTITCRASQSIGTSIHWYQQKPDQSPKLLIKYASESISGVPSRFSGSGSGTDFTLTINSLEAEDAATYYCQQSNNWPLTFGQGTKVEIK	2.67
VH2 + VL3 (antibody, V domains shown, Humanized IgG expressed in HEK293; also called humanized antibody VH2+VL3) VH: QVQLVQSGAEVKKPGASVKVSCKASGYAFSNFWMNWVRQAPGQGLEWMGQIYPGDGDTNYNGKFKGRVTMTRDTSTSTVYMELSSLRSEDTAVYYCARSYYRSAWFAYWGQGTLVTVSS VL: EIVLTQSPATLSLSPGERATLSCRASQSIGTSIHWYQQKPGQAPRLLIYYASESISGIPARFSGSGSGTDFTLTISSLEPEDFAVYYCQQSNNWPLTFGGGTKVEIK	2.73
VH2 + VL1 (antibody, V domains shown, Humanized IgG expressed in HEK293; also called humanized antibody VH2+VL1) VH: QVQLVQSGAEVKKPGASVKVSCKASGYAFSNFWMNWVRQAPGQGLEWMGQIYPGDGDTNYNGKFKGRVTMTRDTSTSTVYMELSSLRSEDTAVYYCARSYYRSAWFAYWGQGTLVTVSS VL: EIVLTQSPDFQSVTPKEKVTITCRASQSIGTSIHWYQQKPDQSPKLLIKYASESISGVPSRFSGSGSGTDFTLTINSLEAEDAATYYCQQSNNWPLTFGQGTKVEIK	3
